pKd listing for selected binders.
STUDY_TARGET: Human CD33 ECD-HSA (human)
Sequence (chain, as listed by the source): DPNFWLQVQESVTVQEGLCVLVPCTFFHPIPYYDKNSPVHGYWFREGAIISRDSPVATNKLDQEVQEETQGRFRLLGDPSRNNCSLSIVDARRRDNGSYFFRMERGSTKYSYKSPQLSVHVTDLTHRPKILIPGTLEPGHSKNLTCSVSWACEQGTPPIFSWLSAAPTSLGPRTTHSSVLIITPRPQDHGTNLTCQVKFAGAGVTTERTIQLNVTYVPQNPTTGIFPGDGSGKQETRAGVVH
PROTOCOL_TEXT: ProteOn SPR, mAb captured by anti-human Fc, 1:1 Langmuir fit
When answering, recall that pKd equals minus log10 of the concentration in mol/L, and write that number alone.

Solved cases (2 shown):
{"BINDER": "C33B125 (antibody, IgG1, V domains shown, huIgG1 F405L; also called C33F130; C33H84/C33L66) VH: QVQLVESGGGVVQPGRSLRLSCAASGFTFSSYGMHWVRQAPGKGLEWVAVISYDGSNKYYADSVKGRFTISRDNSKNTLYLQMNSLRAEDTAVYYCAKDFRSFDWLPPDSTSYYGMDVWGQGTTVTVSS VL: SYELTQPPSVSVSPGQTASITCSGDKLGDKYVCWYQQKPGQSPVVVIHQDRKRPSGIPERFSGSNFGNTATLTISGTQAMDEADYYCQAWDSSTVVFGGGTKLTVL", "pKd": 9.85}
{"BINDER": "C33B101 (antibody, V domains shown, huIgG1 F405L; 260 is used; also called C33F106; C33H69/C4LL152) VH: QLQLQESGPGLVKPSETLSLTCTVSGGSISSSSYYWGWIRQPPGKGLDWIGSINYSGSTYYNPSLKSRVTISVDTSKIQFSLKLRSVTAADTAVYYCARLDGYESPFDYWGQGTLVTVSS VL: DIQMTQSPSSVSASVGDRVTITCRASQGISSWLAWYQQKPGKAPKLLIYAASSLQSGVPSRFSGSGSGTDFTLTISSLQPEDFATYYCQQANSFPFTFGPGTKVDIK", "pKd": 8.18}

Attention now shifts to the item below.
Given C33B66 (antibody, IgG1, V domains shown, huIgG1 F405L; also called C33F71; C33H55/C33L42) VH: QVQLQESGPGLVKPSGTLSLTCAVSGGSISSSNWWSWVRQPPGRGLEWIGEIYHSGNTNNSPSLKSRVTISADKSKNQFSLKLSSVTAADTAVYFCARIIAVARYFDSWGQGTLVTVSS VL: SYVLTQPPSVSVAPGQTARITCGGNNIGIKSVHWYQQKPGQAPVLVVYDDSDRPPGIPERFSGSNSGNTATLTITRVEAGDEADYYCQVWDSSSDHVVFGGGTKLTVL , respond with its pKd.
7.28
